Biological target: AT1R (Homo sapiens, UniProt P30556)
Sequence (P30556 whole entry): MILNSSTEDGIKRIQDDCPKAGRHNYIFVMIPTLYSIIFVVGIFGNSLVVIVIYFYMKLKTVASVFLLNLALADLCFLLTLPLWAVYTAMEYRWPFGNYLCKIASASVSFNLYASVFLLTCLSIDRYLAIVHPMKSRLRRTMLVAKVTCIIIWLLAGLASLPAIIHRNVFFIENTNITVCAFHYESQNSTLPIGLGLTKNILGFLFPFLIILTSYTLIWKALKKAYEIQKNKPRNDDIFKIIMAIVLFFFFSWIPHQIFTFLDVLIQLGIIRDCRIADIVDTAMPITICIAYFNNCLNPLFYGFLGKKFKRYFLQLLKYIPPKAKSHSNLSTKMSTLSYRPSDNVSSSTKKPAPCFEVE
Test: Gαq activation BRET (GABY sensor) in HEK293 cells expressing AT1R
Assay type: cell-based
Parameters: expressed in transfected cells; host or cells: HEK293 cells, transient PEI transfection
Conditions: HEK293 cells transiently expressing human AT1R; Gαq-RlucII/Gβ1/Gγ1-GFP10 (GABY) BRET sensor; BRET read 10 min after ligand; mean ± SEM of at least three to five independent experiments
Peptide text beside a SMILES is read from it.
Recorded EC50 values for a group of compounds are listed next.

CC[C@H](C)[C@H](NC(=O)[C@H](Cc1ccc(O)cc1)NC(=O)[C@@H](NC(=O)[C@H](CCCNC(=N)N)NC(=O)[C@@H](N)CC(=O)O)C(C)C)C(=O)N[C@@H](Cc1c[nH]cn1)C(=O)N1CCC[C@H]1C(=O)N[C@@H](CCCN)C(=O)O | > 10 µM

Proceed to the following item.
Data request, read-out EC50, for CC[C@H](C)[C@H](NC(=O)[C@H](Cc1ccc(O)cc1)NC(=O)[C@@H](NC(=O)[C@H](CCCNC(=N)N)NC(=O)[C@@H](N)CC(=O)O)C(C)C)C(=O)N[C@@H](Cc1c[nH]cn1)C(=O)N1CCC[C@H]1C(=O)N[C@@H](CCC(N)=O)C(=O)O [compound 7] (H-DRVYIHPQ-OH; N-terminus assumed) > 10 µM
